B1: Azoarcus group I ribozyme (parent)
chain: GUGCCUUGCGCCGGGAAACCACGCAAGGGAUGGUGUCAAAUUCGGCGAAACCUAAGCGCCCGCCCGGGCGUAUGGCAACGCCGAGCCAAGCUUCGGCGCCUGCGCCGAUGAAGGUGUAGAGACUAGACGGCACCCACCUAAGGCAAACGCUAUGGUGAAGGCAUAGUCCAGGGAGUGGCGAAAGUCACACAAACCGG

Variants of: B1
experiment_summary: reverse-splicing fitness (ratio to wild type); higher = more active; in vitro selection; Mg2+ level not given
// reported reverse-splicing fitness for each item listed
Please reply with the value in numeric form only.

Worked examples follow.
var: C82A A111G C150G U176G
reverse-splicing fitness: 0.004

var: C82U A120C A145U C150A C169U U176A
reverse-splicing fitness: 0.0155

var: C82U A111U A120C A145U C150A C169A U176A
reverse-splicing fitness: 0.0106

var: C82A A111U A120G A145U C169A U176A
reverse-splicing fitness: 0.012

var: A111U A120G A145C C150G C169U U176G
reverse-splicing fitness: 0.00521

var: C82U A111U A120U C150A C169U U176A
reverse-splicing fitness: 0.0059

Qu. reverse-splicing fitness lookup needed for C82G A111C A120G A145U C150G U176A , thanks.
Ans. 0.00814

Qu. reverse-splicing fitness lookup needed for C82U A111C A145G C169U U176G , thanks.
Ans. 0.00688

Qu. reverse-splicing fitness lookup needed for C82A A111G A120U C169U U176G , thanks.
Ans. 0.00235

Qu. reverse-splicing fitness lookup needed for A111U A120G A145U C150A , thanks.
Ans. 0.0183

Qu. reverse-splicing fitness lookup needed for A111U A120G A145G C150G C169G U176A , thanks.
Ans. 0.00971

Qu. reverse-splicing fitness lookup needed for A120G A145G C169G U176G , thanks.
Ans. 0.0103

Qu. reverse-splicing fitness lookup needed for "U176G" , thanks.
Ans. 0.348

Qu. reverse-splicing fitness lookup needed for C82G A111U A120C C150G U176G , thanks.
Ans. 0.00396
